Exercise: for every item that follows, state its recorded residual activity.
- system: Casein kinase I isoform delta (Homo sapiens)
- stated_conditions: at 10 µM
- Description: Millipore: Percentage of residual kinase activity of CSNK1D at 10uM relative to control. Control inhibitor: Jnk Inhibitor II at 100.0uM. Buffer: 8 mM MOPS pH 7.0, 0.2 mM EDTA
Form field: result (number plus unit)

[ask] Quick one: residual activity of O=C1NC(=O)c2c1c1c3ccccc3n3c1c1c2c2ccccc2n1C1CCC3O1 ?
[reply] 75%

[ask] Quick one: residual activity of COc1ccc2c(c1)/C(=C/c1cnc[nH]1)C(=O)N2 ?
[reply] 37%

[ask] Quick one: residual activity of CCn1cnc2c(Nc3cccc(Cl)c3)nc(N[C@@H]3CCCC[C@@H]3N)nc21 ?
[reply] 51%

[ask] Quick one: residual activity of O=c1[nH]c2ccccc2n1C1CCN(Cc2ccc(-c3nc4cc5[nH]cnc5cc4nc3-c3ccccc3)cc2)CC1 ?
[reply] 53%
